Values were extracted from paper PMC11312998.

tested on: HCC38; test: MTT cytotoxicity assay; type: cell-based; conditions: Homo sapiens, 24 h incubation, mean ± SEM, read-out: Cytotoxic effect, IC50
Please respond with reported IC50 for every item in the list.
Entry rule: numbers only, all in µM.

## Input Need IC50 of O=C1/C(=C/c2ccccc2)C(c2ccccc2)Oc2ccccc21 (stereo not drawn) [Compound 5] , thanks.
## Output 25.6

## Input Ok, now Cc1ccc(/C=C2/C(=O)c3ccccc3OC2c2ccccc2)cc1 (stereo not drawn) [Compound 4]
## Output 93.2

## Input // query: O=C1/C(=C/c2ccccc2)COc2ccccc21 [Compound 1]
## Output 15.7

## Input Param item: COc1cccc(/C=C2/C(=O)c3ccccc3OC2c2ccccc2)c1 (stereo not drawn) [Compound 3]
## Output 20.9
